Molecular target: CDK1/CyclinB1 (Homo sapiens, UniProt P06493)
Experiment: CDKi biochemical assay (TR-FRET, phosphorylation of S780 on RB1 peptide)
Settings: CDK1/CyclinB1 10 pM, 1 mM ATP, 60 min at 25° C.
Text: […]
Experimental Readout: IC50 (µM)

I. O=C1N([C@@H]2CCC[C@@H](O)C2)c2nc(Nc3c[nH]nc3OC[C@H]3COCCO3)ncc2C12CC2
II. Cn1cc(Nc2ncc3c(n2)N([C@@H]2CCC[C@@H](O)C2)C(=O)C32CC2)cn1
III. O=C1N([C@@H]2CCC[C@@H](O)C2)c2nc(Nc3c[nH]nc3OC[C@H]3COC[C@H]3F)ncc2C12CC2
IV. COc1n[nH]cc1Nc1ncc2c(n1)N([C@@H]1CCC[C@@H](O)C1)C(=O)C21CC1
Put these in order: smallest IC50 first, largest last. Your task in answering is to list the labels in the requested order.
II, IV, I, III

---

Molecular target: CDK6/cyclinD3 (Homo sapiens, UniProt Q00534)
Assay: CDKi biochemical assay (TR-FRET, phosphorylation of S780 on RB1 peptide)
Conditions: CDK6/cyclinD3 10 pM, 1 mM ATP, 60 min at 25° C.
Excerpt: […]
pIC50: −log10 of the molar value.
Experimental Readout: pIC50

Molecule	Reading
COCCOc1n[nH]cc1Nc1ncc2c(n1)N([C@@H]1CCC[C@@H](O)C1)C(=O)C21CC1	5.09
O=C1N([C@@H]2CCC[C@@H](O)C2)c2nc(Nc3c[nH]nc3OC3CCC(F)(F)C3)ncc2C12CC2 (stereo partly shown)	5.01

---

Biological target: CDK2/CyclinE1 (Homo sapiens, UniProt P24941)
Assay: CDKi biochemical assay (TR-FRET, phosphorylation of S780 on RB1 peptide)
Details: CDK2/CyclinE1 100 pM, 1 mM ATP, 60 min at 25° C.
Experimental Readout: IC50 (nM)

Cn1cc(Nc2ncc3c(n2)N([C@@H]2CCC[C@@H](O)C2)C(=O)C32CC2)cn1 38
Cn1ncc(-c2n[nH]cc2Nc2ncc3c(n2)N([C@@H]2CCC[C@@H](O)C2)C(=O)C32CC2)c1Cl 15
O=C1N([C@@H]2CCC[C@@H](O)C2)c2nc(Nc3c[nH]nc3CO)ncc2C12CC2 32
COCc1n[nH]cc1Nc1ncc2c(n1)N([C@@H]1CCC[C@@H](O)C1)C(=O)C21CC1 17

A. Cc1n[nH]cc1Nc1ncc2c(n1)N([C@@H]1CCCC[C@@H](O)C1)C(=O)C21CC1
B. O=C1N([C@@H]2CCC[C@@H](O)C2)c2nc(Nc3c[nH]nc3-c3cnn4ccncc34)ncc2C12CC2
C. CN1C[C@@H](F)[C@H](Oc2n[nH]cc2Nc2ncc3c(n2)N([C@@H]2CCC[C@@H](O)C2)C(=O)C32CC2)C1
Parameters: sort_field (IC50), sort_dir (desc). Would you mind listing the labels in the order requested?
C, A, B

---

Biological target: CDK4/cyclinD1 (Homo sapiens)
Assay: CDKi biochemical assay (TR-FRET, phosphorylation of S780 on RB1 peptide)
Conditions: CDK4/cyclinD1 20 pM, 1 mM ATP, 60 min at 25° C.
From the text: […]
Experimental Readout: IC50 (µM)

I. O=C1N([C@@H]2CCC[C@@H](O)C2)c2nc(Nc3c[nH]nc3O[C@@H]3COC[C@H]3F)ncc2C12CC2 [Example 24]
II. O=C1N([C@@H]2CCC[C@@H](O)C2)c2nc(Nc3c[nH]nc3OC3CC3)ncc2C12CC2 [Example 55]
# returns the entry with the larger IC50; inputs I and II Selection: enter the item's label.
II
(II: 8.5 µM, I: 3.91 µM)

---

Target: CDK4/cyclinD1 (Homo sapiens)
Assay: CDKi biochemical assay (TR-FRET, phosphorylation of S780 on RB1 peptide)
Conditions: CDK4/cyclinD1 20 pM, 1 mM ATP, 60 min at 25° C.
Experimental Readout: IC50 (µM)

Compound	IC50 (µM)
Cc1cc(Nc2ncc3c(n2)N([C@@H]2CCC[C@@H](O)C2)C(=O)C32CC2)[nH]n1	6.69
O=C1N([C@@H]2CCC[C@@H](O)C2)c2nc(Nc3c[nH]nc3-c3cccnc3)ncc2C12CC2	8.65
O=C1N([C@@H]2CCC[C@@H](O)C2)c2nc(Nc3c[nH]nc3OCC(F)F)ncc2C12CC2	2.68

P. Cc1n[nH]cc1Nc1ncc2c(n1)N([C@@H]1CCC[C@@H](O)C1)C(=O)C21CC1
Q. N#CC1(COc2n[nH]cc2Nc2ncc3c(n2)N([C@@H]2CCC[C@@H](O)C2)C(=O)C32CC2)CC1
// returns P or Q , whichever has the lower IC50 Identify your pick by its label.
P

I. O=C1N([C@@H]2CCC[C@@H](O)C2)c2nc(Nc3c[nH]nc3O[C@@H]3CC3(F)F)ncc2C12CC2
II. Cc1c(-c2n[nH]cc2Nc2ncc3c(n2)N([C@@H]2CCC[C@@H](O)C2)C(=O)C32CC2)cnn1C(F)F
Record comparison, field IC50: mark the lower of I and II . Your answer should be the label attached to the chosen record.
II

1. N#Cc1n[nH]cc1Nc1ncc2c(n1)N([C@@H]1CCC[C@@H](O)C1)C(=O)C21CC1
2. [2H]C([2H])([2H])Oc1n[nH]cc1Nc1ncc2c(n1)N([C@@H]1CCC[C@@H](O)C1)C(=O)C21CC1
Lab log: flag the item ( 1 or 2 ) with the smaller IC50 figure. Bench note: the answer is the label of the chosen record.
1
(1: 2.16 µM, 2: 9.77 µM)

A. O=C1N([C@@H]2CCC[C@@H](O)C2)c2nc(Nc3c[nH]nc3OCC3COCC3(F)F)ncc2C12CC2 (some centres unmarked)
B. O=C1N([C@@H]2CCC[C@@H](O)C2)c2nc(Nc3c[nH]nc3-c3nnco3)ncc2C12CC2
Lab note: record which item had the higher IC50, A or B . Identify your selection by its label.
A

---

Target: CDK6/cyclinD3 (Homo sapiens, UniProt Q00534)
Assay: CDKi biochemical assay (TR-FRET, phosphorylation of S780 on RB1 peptide)
Settings: CDK6/cyclinD3 10 pM, 1 mM ATP, 60 min at 25° C.
pIC50: −log10 of the molar value.
Experimental Readout: pIC50

O=C1N([C@@H]2CCC[C@@H](O)C2)c2nc(Nc3c[nH]nc3-c3nnco3)ncc2C12CC2 5.57

1. O=C1N([C@@H]2CCC[C@@H](O)C2)c2nc(Nc3c[nH]nc3O[C@H]3COC[C@H]3F)ncc2C12CC2
2. O=C1N([C@@H]2CCC[C@@H](O)C2)c2nc(Nc3c[nH]nc3O[C@H]3CC3(F)F)ncc2C12CC2
Pick one: 1 or 2 . Which has the bigger pIC50 number? In your reply, give the label of the chosen option.
1

---

Biological target: CDK2/CyclinE1 (Homo sapiens, UniProt P24941)
Experiment: CDKi biochemical assay (TR-FRET, phosphorylation of S780 on RB1 peptide)
Settings: CDK2/CyclinE1 100 pM, 1 mM ATP, 60 min at 25° C.
Experimental Readout: IC50 (µM)

Below, each entry is followed by its recorded IC50 result.
Molecule	Reading
O=C1N([C@@H]2CCC[C@@H](O)C2)c2nc(Nc3c[nH]nc3OC3CCOCC3)ncc2C12CC2 [Example 74]	0.255
O=C1N([C@@H]2CCC[C@@H](O)C2)c2nc(Nc3c[nH]nc3OC[C@H]3COCCO3)ncc2C12CC2 [Example 66]	0.051
Cn1cc(Oc2n[nH]cc2Nc2ncc3c(n2)N([C@@H]2CCC[C@@H](O)C2)C(=O)C32CC2)cn1 [Example 35]	0.054
O=C1N([C@@H]2CCC[C@@H](O)C2)c2nc(Nc3c[nH]nc3OCC3(F)CC3)ncc2C12CC2 [Example 45]	0.011

1. O=C1N([C@@H]2CCC[C@@H](O)C2)c2nc(Nc3c[nH]nc3C3CCOC3)ncc2C12CC2 (stereo partly shown) [Example 8]
2. O=C1N([C@@H]2CCC[C@@H](O)C2)c2nc(Nc3c[nH]nc3OC3(CF)CC3)ncc2C12CC2 [Example 85]
Out of 1 and 2 , name the one with the higher IC50. In your reply, give the label of the chosen option.
1
(1: 0.234 µM, 2: 0.027 µM)

---

Target: CDK6/cyclinD3 (Homo sapiens)
Assay: CDKi biochemical assay (TR-FRET, phosphorylation of S780 on RB1 peptide)
Details: CDK6/cyclinD3 10 pM, 1 mM ATP, 60 min at 25° C.
Experimental Readout: IC50 (µM)

O=C1N([C@@H]2CCC[C@@H](O)C2)c2nc(Nc3c[nH]nc3O[C@H]3CCOC3)ncc2C12CC2 3.54
COCCn1cc(Nc2ncc3c(n2)N([C@@H]2CCC[C@@H](O)C2)C(=O)C32CC2)cn1 1.8

a. O=C1N([C@@H]2CCC[C@@H](O)C2)c2nc(Nc3c[nH]nc3OCC3(F)CC3)ncc2C12CC2
b. COCC(F)(F)COc1n[nH]cc1Nc1ncc2c(n1)N([C@@H]1CCC[C@@H](O)C1)C(=O)C21CC1
Lab note: check whether a or b has the lower measured IC50. Kindly give the label for the entry you pick.
a

Data credit: patent US20240360137A1
